Attribution: PubChem BioAssay AID248

Test system: L1210 leukemia ip in BDF1 mice, survival T/C
Experiment: NCI In Vivo Anticancer Drug Screen. Data for tumor model L1210 Leukemia (intraperitoneal) in B6D2F1 (BDF1) mice
Conditions: endpoint: mean survival time; dose: 200.0 mg/kg/injection; schedule: Q01DX001 (ip); vehicle: carboxymethylcellulose (CMC); higher = longer survival
Toxic doses and inconclusive results are not listed.

{"columns": ["molecule", "system_tested", "T/C"],
 "data": [
  ["COc1ccc(Cl)cc1CC=O", "L1210 leukemia ip in BDF1 mice, survival T/C", "118 % of control"],
  ["Nc1nc(N)c(-c2ccc(Cl)cc2)c(C=O)n1", "L1210 leukemia ip in BDF1 mice, survival T/C", "87 % of control"],
  ["CC(=O)Nc1c(I)cc2c(c1I)Cc1cc([N+](=O)[O-])ccc1-2", "L1210 leukemia ip in BDF1 mice, survival T/C", "104 % of control"],
  ["CCCC(C)(O)C(C)(C)C (stereo not given)", "L1210 leukemia ip in BDF1 mice, survival T/C", "106 % of control"],
  ["Cc1ccc(NCC(=O)NN)cc1C", "L1210 leukemia ip in BDF1 mice, survival T/C", "94 % of control"],
  ["ClCCN(CCCl)c1ccc(-c2csc(COc3ccccc3)n2)cc1", "L1210 leukemia ip in BDF1 mice, survival T/C", "96 % of control"],
  ["Cc1ccc(S(=O)(=O)N2CCc3ccccc3C3(C2)OCCO3)cc1", "L1210 leukemia ip in BDF1 mice, survival T/C", "96 % of control"],
  ["COc1ccccc1CN1CCCN(Cc2ccccc2OC)C1c1cc(Br)c(OC)c(OC)c1", "L1210 leukemia ip in BDF1 mice, survival T/C", "91 % of control"],
  ["N#CC1(Nc2ccc(-c3ccc(Cl)cc3)cc2)CCCC1", "L1210 leukemia ip in BDF1 mice, survival T/C", "87 % of control"],
  ["COc1ccc(C(=O)C(C)C(C)=O)c(OCc2ccccc2)c1OC (stereo not given)", "L1210 leukemia ip in BDF1 mice, survival T/C", "98 % of control"],
  ["CCOC(=O)CC(=O)NC(C)(CCOCc1ccccc1)C(=O)OCC (stereo not given)", "L1210 leukemia ip in BDF1 mice, survival T/C", "110 % of control"],
  ["N#CC(NC(N)=O)(c1ccccc1)c1ccccc1", "L1210 leukemia ip in BDF1 mice, survival T/C", "96 % of control"],
  ["CCCCCCCCCCSCCSCCCCCCCCCC", "L1210 leukemia ip in BDF1 mice, survival T/C", "101 % of control"],
  ["O=C(Nc1cccc(Cl)c1)Nc1ccc(Cl)c(C(F)(F)F)c1", "L1210 leukemia ip in BDF1 mice, survival T/C", "100 % of control"],
  ["O=C(O)CSCc1cccc2ccccc12", "L1210 leukemia ip in BDF1 mice, survival T/C", "93 % of control"],
  ["CN(C)C(=O)C(=O)c1cn(C)c2ccccc12", "L1210 leukemia ip in BDF1 mice, survival T/C", "93 % of control"],
  ["Nc1c(Cl)c(Cl)c2c(c1Cl)C(O)c1cc(Cl)ccc1-2 (stereo not given)", "L1210 leukemia ip in BDF1 mice, survival T/C", "95 % of control"],
  ["O=S(c1cc(Cl)cc(Cl)c1O)c1cc(Cl)cc(Cl)c1O", "L1210 leukemia ip in BDF1 mice, survival T/C", "101 % of control"],
  ["COc1cc(OC)c2c(=O)c3ccoc3n(C)c2c1OC", "L1210 leukemia ip in BDF1 mice, survival T/C", "93 % of control"],
  ["O=[N+]([O-])c1ccc(OC(=S)Oc2ccc([N+](=O)[O-])cc2)cc1", "L1210 leukemia ip in BDF1 mice, survival T/C", "97 % of control"],
  ["CC(=O)OC1CCSc2ccccc21 (stereo not given)", "L1210 leukemia ip in BDF1 mice, survival T/C", "104 % of control"],
  ["O=C(O)c1cc2cc(Cl)ccc2oc1=O", "L1210 leukemia ip in BDF1 mice, survival T/C", "92 % of control"],
  ["Nc1nc(N)c2[nH]cnc2n1 (tested in a mixture with another compound)", "L1210 leukemia ip in BDF1 mice, survival T/C", "89 % of control"],
  ["O=C(O)c1ccccc1/C=N/NC(=O)C(O)(c1ccccc1)c1ccccc1", "L1210 leukemia ip in BDF1 mice, survival T/C", "101 % of control"],
  ["O=C1C(c2ccccc2)=C(N2CCCCC2)C(=O)C(c2ccccc2)=C1N1CCCCC1", "L1210 leukemia ip in BDF1 mice, survival T/C", "90 % of control"]
]}
